Answer each item with its documented Affinity ELISA CPE mutant ratio (1:9, pH 6.0/7.4).
- target.under.test: Axl (UniProt P30530)
- Sequence (P30530 26-451 limits assumed): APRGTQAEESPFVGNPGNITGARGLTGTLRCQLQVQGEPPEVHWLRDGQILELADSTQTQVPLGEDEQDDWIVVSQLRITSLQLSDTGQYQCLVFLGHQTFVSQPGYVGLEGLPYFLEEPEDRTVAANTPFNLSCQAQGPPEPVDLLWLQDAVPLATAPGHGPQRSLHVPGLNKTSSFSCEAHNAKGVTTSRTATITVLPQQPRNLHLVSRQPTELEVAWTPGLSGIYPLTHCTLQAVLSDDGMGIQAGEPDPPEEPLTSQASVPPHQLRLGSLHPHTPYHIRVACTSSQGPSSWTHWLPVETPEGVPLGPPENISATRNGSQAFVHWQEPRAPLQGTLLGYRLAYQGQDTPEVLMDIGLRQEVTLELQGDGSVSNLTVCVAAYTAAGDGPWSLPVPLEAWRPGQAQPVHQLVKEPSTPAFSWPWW
- measurement.protocol: ELISA, 1:9 dilution
Numbers only.

>  <binder>
LC-W050F (antibody, V domains shown) VH: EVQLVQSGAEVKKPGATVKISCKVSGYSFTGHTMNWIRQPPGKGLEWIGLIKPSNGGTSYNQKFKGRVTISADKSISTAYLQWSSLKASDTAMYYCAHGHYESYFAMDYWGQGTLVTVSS VL: DIQMTQSPSSLSASVGDRVTITCKASQDVSSAVAWYQQKPGQAPRLLIYFASTRHTGVPSRFSGSGSGTEFTLTISSLQPDDFATYYCQEHFSTPLTFGQGTKVEIK

>  <reported.value>
3.5

$$$$
>  <binder>
HC-W110P (antibody, V domains shown) VH: EVQLVQSGAEVKKPGATVKISCKVSGYSFTGHTMNWIRQPPGKGLEWIGLIKPSNGGTSYNQKFKGRVTISADKSISTAYLQWSSLKASDTAMYYCAHGHYESYFAMDYPGQGTLVTVSS VL: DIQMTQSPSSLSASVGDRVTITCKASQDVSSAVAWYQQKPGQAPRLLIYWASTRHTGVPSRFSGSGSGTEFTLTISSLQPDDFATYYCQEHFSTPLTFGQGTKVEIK

>  <reported.value>
2.15

$$$$
>  <binder>
LC-H091T (antibody, V domains shown) VH: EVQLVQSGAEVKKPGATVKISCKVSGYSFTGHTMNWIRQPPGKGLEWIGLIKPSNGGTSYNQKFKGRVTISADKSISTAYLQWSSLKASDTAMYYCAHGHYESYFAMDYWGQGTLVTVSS VL: DIQMTQSPSSLSASVGDRVTITCKASQDVSSAVAWYQQKPGQAPRLLIYWASTRHTGVPSRFSGSGSGTEFTLTISSLQPDDFATYYCQETFSTPLTFGQGTKVEIK

>  <reported.value>
3.78

$$$$

Would you mind listing Affinity ELISA CPE mutant ratio (1:9, pH 6.0/7.4) for each of the following binders?
1. LC-P095K (antibody, V domains shown) VH: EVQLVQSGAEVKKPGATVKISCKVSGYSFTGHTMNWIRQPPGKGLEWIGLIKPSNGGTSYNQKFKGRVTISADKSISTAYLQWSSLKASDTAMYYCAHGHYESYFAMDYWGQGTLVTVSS VL: DIQMTQSPSSLSASVGDRVTITCKASQDVSSAVAWYQQKPGQAPRLLIYWASTRHTGVPSRFSGSGSGTEFTLTISSLQPDDFATYYCQEHFSTKLTFGQGTKVEIK
2. LC-V029D (antibody, V domains shown) VH: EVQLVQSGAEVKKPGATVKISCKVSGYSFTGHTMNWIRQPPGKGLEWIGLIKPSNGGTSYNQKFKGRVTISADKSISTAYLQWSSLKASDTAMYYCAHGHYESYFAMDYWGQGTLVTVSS VL: DIQMTQSPSSLSASVGDRVTITCKASQDDSSAVAWYQQKPGQAPRLLIYWASTRHTGVPSRFSGSGSGTEFTLTISSLQPDDFATYYCQEHFSTPLTFGQGTKVEIK

Reply |
[3.47, 2.68]
